Biological target: GST-tagged MDM2 (Homo sapiens, UniProt Q00987)
Construct: purchased Cisbio Co. Ltd
Sequence (Q00987 whole entry): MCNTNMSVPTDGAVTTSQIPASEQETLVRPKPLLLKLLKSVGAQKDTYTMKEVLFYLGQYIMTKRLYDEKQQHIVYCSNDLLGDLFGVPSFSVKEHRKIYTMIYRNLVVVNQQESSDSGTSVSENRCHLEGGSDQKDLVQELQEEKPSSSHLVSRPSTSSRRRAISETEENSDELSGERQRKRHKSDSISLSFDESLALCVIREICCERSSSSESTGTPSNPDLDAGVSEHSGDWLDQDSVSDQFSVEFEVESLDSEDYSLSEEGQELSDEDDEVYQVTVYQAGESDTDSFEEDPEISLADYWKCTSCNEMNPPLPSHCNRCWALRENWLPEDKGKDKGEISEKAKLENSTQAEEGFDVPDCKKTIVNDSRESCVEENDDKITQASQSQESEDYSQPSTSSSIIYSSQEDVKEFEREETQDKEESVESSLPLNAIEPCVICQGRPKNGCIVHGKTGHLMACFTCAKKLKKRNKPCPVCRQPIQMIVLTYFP
Assay: HTRF enzyme inhibition assay, MDM2
Type: biochemical
Settings: compound at 1 μM
Protocol: The enzymatic assay of test compounds is using the HTRF-based method provided by Cisbio Co. Ltd. In brief, the target compounds to be tested were prepared into samples with a concentration of 1 μM, which was added to GST-tagged MDM2 and HDAC1 proteins, respectively, then biotinylated substrate p53 peptide and HTRF detection reagents were added. The data obtained were processed by the ratio method, and the inhibition rates of MDM2 and HDAC1 were calculated. […]
Kind request: treat 50% as inclusive, so inhibition at 1 µM at 50% or higher is true, anything lower is false.

Solved entries (count: 3):
molecule	class
CN1C[C@@H](c2ccc(NC(=O)CCCCCCC(=O)NO)cc2)[C@H](C(=O)c2ccccc2)[C@@]12C(=O)Nc1cc(Cl)ccc12 [13a]	true
CN(C)c1ccc(C(=O)[C@H]2[C@H](c3ccc(NC(=O)CCCCCCC(=O)NO)cc3)[C@H]3CSCN3[C@]23C(=O)Nc2ccccc23)cc1	false
COc1cccc(C(=O)[C@H]2[C@H](c3ccc(NC(=O)CCCCCCC(=O)NO)cc3)[C@H]3CSCN3[C@]23C(=O)Nc2ccccc23)c1	false

Q: State whether the measured inhibition at 1 µM reaches 50%, counting equality as reaching it, for O=C(COCC(=O)Nc1ccc([C@@H]2[C@H]3CSCN3[C@]3(C(=O)Nc4cc(Cl)ccc43)[C@H]2C(=O)c2ccccc2)cc1)NO
Result: true

Q: State whether the measured inhibition at 1 µM reaches 50%, counting equality as reaching it, for O=C(CCCCCCC(=O)Nc1ccc([C@@H]2[C@H]3CCCN3[C@]3(C(=O)Nc4cc(Cl)ccc43)[C@H]2C(=O)c2ccccc2)cc1)NO
Result: true

###

Biological target: UniProtKB Q9UQL6
Sequence (Q9UQL6 whole entry, canonical isoform): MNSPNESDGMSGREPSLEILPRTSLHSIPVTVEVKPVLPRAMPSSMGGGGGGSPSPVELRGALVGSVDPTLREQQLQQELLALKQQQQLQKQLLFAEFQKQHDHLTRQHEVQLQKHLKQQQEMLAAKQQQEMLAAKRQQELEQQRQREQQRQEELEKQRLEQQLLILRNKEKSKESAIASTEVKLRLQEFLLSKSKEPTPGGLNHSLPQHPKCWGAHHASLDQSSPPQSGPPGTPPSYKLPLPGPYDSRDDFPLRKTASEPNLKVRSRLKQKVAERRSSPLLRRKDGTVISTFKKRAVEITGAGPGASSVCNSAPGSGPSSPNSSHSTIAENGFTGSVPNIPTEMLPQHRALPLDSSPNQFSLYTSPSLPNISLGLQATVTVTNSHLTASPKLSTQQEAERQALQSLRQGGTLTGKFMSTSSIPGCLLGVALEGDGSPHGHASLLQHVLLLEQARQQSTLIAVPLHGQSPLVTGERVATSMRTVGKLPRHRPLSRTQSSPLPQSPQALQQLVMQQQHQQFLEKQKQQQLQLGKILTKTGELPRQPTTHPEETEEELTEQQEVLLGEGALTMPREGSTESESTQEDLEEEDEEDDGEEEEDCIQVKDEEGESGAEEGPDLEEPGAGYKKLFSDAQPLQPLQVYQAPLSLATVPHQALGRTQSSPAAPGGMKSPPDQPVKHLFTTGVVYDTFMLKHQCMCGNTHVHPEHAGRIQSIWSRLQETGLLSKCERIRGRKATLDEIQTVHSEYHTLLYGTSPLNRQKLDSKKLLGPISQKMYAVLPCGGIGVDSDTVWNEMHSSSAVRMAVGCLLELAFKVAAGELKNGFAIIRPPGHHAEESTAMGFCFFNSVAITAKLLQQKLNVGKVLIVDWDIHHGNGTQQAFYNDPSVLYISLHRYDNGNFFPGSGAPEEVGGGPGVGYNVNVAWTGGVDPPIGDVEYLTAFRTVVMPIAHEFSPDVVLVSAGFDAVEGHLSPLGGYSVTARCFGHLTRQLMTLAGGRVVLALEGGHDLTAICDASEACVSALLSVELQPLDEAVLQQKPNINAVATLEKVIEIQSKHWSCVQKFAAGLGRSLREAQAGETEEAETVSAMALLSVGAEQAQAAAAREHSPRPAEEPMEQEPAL
Test: HDAC isoform selectivity, HDAC5
Settings: HDAC subtype panel
recorded metric: IC50

Q: Tell me IC50 of O=C(CCCCCCC(=O)N1CCC(C(=O)Nc2ccc([C@@H]3[C@H]4CSCN4[C@]4(C(=O)Nc5cc(Cl)ccc54)[C@H]3C(=O)c3ccccc3)cc2)CC1)NO [compound 11b] when tested on UniProtKB Q9UQL6.
Result: > 10 µM

###

Target: GST-tagged MDM2 (Homo sapiens, UniProt Q00987)
Construct: purchased Cisbio Co. Ltd
Assay: HTRF enzyme inhibition assay, MDM2
Format: biochemical
Conditions: compound at 1 μM
# inhibition at 1 µM annotations
Give the number; % is assumed, so skip it.

Previously resolved entries follow.
compound	target	quantitative readout
O=C(CCCCCCC(=O)N1CCC(C(=O)Nc2ccc([C@@H]3[C@H]4CSCN4[C@]4(C(=O)Nc5cc(Cl)ccc54)[C@H]3C(=O)c3ccccc3)cc2)CC1)NO [compound 11b]	GST-tagged MDM2 (Homo sapiens, UniProt Q00987)	68
O=C(CCCCCCC(=O)Nc1ccc([C@@H]2[C@H]3CSCN3[C@]3(C(=O)Nc4ccccc43)[C@H]2C(=O)c2ccccc2)cc1)NO	GST-tagged MDM2 (Homo sapiens, UniProt Q00987)	39

Q: Look up and state reported inhibition at 1 µM for COc1ccc2c(c1)NC(=O)[C@@]21[C@@H](C(=O)c2ccccc2)[C@H](c2ccc(NC(=O)CCCCCCC(=O)NO)cc2)[C@H]2CSCN21
Result: 54

// data source = paper PMC9386376
